Values were extracted from patent US20210032365A1.

Measured kon accompanies every entry in the list below.
measuredOn: T1, human C1s (human, UniProt P09871 16-688)
T1 construct: also called hC1s; serum-derived human C1s (CompTech)
T1 sequence: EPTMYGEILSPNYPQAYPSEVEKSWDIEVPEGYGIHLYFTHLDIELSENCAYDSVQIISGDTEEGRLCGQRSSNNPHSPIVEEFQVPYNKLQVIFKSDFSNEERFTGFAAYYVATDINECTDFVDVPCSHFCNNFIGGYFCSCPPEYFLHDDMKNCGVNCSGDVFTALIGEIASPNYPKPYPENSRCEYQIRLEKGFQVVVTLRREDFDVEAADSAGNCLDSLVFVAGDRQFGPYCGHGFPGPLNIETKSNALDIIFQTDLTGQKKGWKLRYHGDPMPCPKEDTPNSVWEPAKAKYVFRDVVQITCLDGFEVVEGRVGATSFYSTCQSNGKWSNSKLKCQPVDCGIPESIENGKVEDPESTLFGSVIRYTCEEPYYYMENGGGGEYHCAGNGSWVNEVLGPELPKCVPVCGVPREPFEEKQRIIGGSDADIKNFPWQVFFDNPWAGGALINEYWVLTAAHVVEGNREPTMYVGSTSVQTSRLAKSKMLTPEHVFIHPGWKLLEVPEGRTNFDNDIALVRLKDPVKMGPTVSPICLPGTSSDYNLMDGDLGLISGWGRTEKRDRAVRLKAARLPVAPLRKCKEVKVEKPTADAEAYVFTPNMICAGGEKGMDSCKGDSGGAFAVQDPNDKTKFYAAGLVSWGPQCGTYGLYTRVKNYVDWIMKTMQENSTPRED
assayInfo: SPR, Ab captured; pH 7.4, 1.2 mM Ca
Kindly provide the numeric value in M⁻¹ s⁻¹ only, without the unit symbol.

Sample records with kon:
• C1_IPN92H0026-SG4GK/IPN93L0028-SK1 (antibody, human IgG4 S228P, kappa, name in Kabat numbering, V domains shown, also called IPN92H0026/IPN93L0028) VH: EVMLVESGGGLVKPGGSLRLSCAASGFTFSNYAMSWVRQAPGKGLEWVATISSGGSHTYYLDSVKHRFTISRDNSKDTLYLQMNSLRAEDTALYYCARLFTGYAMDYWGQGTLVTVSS VL: QIVLTQSPATLSLSPGERATLSCTASSSVSSSYLHWYQQKPGKAPKLWIYSTSNLASGVPSRFSGSGSGTDYTLTISSLQPEDFATYYCHQYHRHPPITFGQGTKLEIKR = 535000
• C1_IPN92H0038-SG4GK/IPN93L0031-SK1 (antibody, human IgG4 S228P, kappa, name in Kabat numbering, V domains shown, also called IPN92H0038/IPN93L0031) VH: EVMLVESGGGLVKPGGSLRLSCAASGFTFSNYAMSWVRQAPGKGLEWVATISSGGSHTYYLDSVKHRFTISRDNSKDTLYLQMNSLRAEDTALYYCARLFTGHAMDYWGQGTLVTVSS VL: QIVLTQSPATLSLSPGERATLSCTASSSVSSSYLHWYQQKPGKAPKLWIYSTSNLASGVPSRFSGSGSGTDYTLTISSLQPEDFATYYCHQYHRHHPITFGQGTKLEIKR = 7.59e+06
• C1_IPN92H0026-SG4GK/IPN93L0031-SK1 (antibody, human IgG4 S228P, kappa, name in Kabat numbering, V domains shown, also called IPN92H0026/IPN93L0031) VH: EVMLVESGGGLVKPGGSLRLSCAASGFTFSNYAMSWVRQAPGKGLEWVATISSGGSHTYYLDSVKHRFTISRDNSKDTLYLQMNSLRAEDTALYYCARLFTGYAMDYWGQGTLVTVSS VL: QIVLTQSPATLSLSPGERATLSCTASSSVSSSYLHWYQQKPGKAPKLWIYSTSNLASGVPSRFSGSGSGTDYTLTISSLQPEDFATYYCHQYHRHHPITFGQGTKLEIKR = 23300
• C1_IPN92H0033-SG4GK/IPN93L0023-SK1 (antibody, human IgG4 S228P, kappa, name in Kabat numbering, V domains shown, also called IPN92H0033/IPN93L0023) VH: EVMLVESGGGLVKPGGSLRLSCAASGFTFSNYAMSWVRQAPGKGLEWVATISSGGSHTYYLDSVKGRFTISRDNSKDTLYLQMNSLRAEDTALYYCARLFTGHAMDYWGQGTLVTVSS VL: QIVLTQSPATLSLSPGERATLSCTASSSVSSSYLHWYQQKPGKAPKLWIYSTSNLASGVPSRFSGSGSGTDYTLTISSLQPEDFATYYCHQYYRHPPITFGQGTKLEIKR = 301000
• C1_IPN92H0026-SG4GK/IPN93L0029-SK1 (antibody, human IgG4 S228P, kappa, name in Kabat numbering, V domains shown, also called IPN92H0026/IPN93L0029) VH: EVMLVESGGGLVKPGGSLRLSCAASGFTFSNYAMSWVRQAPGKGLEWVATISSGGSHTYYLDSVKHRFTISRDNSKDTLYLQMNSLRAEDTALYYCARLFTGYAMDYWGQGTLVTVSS VL: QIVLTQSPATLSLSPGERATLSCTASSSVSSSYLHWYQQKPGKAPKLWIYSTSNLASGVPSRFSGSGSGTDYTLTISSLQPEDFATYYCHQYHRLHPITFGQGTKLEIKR = 507000
• C1_IPN92H0026-SG4GK/IPN93L0024-SK1 (antibody, human IgG4 S228P, kappa, name in Kabat numbering, V domains shown, also called IPN92H0026/IPN93L0024) VH: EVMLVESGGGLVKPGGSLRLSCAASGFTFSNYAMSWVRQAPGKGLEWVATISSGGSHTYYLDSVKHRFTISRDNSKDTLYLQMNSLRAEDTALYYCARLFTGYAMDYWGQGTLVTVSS VL: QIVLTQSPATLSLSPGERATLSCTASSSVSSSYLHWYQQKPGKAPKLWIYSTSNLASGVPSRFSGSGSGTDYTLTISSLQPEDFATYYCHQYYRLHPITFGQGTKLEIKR = 412000
• C1_IPN92H0038-SG4GK/IPN93L0029-SK1 (antibody, human IgG4 S228P, kappa, name in Kabat numbering, V domains shown, also called IPN92H0038/IPN93L0029) VH: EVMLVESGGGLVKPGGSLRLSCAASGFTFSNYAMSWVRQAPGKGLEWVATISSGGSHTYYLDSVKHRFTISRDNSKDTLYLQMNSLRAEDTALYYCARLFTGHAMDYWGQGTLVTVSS VL: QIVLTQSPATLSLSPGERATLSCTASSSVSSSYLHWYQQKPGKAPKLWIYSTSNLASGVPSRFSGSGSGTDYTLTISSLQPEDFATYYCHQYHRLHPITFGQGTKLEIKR = 419000
• C1_IPN92H0038-SG4GK/IPN93L0021-SK1 (antibody, human IgG4 S228P, kappa, name in Kabat numbering, V domains shown, also called IPN92H0038/IPN93L0021) VH: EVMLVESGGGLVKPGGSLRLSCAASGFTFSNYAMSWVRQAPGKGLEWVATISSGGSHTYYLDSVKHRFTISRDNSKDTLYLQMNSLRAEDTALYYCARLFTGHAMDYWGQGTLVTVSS VL: QIVLTQSPATLSLSPGERATLSCTASSSVSSSYLHWYQQKPGKAPKLWIYSTSNLASGVPSRFSGSGSGTDYTLTISSLQPEDFATYYCHQYHRLPPITFGQGTKLEIKR = 498000

Recorded kon (binder C1_IPN009VH2-SG4GK/IPN93L0031-SK1 (antibody, human IgG4 S228P, kappa, name in Kabat numbering, V domains shown, also called IPN009VH2/IPN93L0031) VH: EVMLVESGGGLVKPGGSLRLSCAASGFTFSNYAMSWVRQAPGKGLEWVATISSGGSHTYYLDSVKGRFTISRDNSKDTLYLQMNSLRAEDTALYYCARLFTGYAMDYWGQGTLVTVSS VL: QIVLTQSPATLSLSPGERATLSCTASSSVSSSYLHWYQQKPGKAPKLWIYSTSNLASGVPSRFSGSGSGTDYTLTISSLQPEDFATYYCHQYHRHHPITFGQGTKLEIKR ): 47600

Entry C1_IPN92H0026-SG4GK/IPN93L0021-SK1 (antibody, human IgG4 S228P, kappa, name in Kabat numbering, V domains shown, also called IPN92H0026/IPN93L0021) VH: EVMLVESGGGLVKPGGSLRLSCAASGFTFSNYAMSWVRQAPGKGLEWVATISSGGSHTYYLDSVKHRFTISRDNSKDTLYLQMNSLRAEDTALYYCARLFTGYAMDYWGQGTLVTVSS VL: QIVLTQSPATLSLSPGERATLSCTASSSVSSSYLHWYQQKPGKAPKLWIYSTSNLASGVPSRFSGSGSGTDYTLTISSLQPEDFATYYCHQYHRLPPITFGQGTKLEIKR — recorded kon = 587000
